B1: LINE1-mini (parent)
chain: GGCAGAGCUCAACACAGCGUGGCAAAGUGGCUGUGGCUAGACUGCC

Variants of: B1
MEASUREMENT_NOTES: self-cleavage, relative activity (ratio to wild type); higher = more cleavage; in vitro, sequencing; the parent is a self-cleaving ribozyme
MEASURED_METRIC: self-cleavage
I'd appreciate a reply containing only the number, no unit.

Enquiry: Need self-cleavage of G29A G35U , thanks.
Return: 0.15

Enquiry: Need self-cleavage of A16G G22C , thanks.
Return: 0.1

Enquiry: Need self-cleavage of U20G C45G , thanks.
Return: 0.25

Enquiry: Need self-cleavage of G5C C10U , thanks.
Return: 0.04

Enquiry: Need self-cleavage of G22A C45G , thanks.
Return: 0.32

Enquiry: Need self-cleavage of G1U G29U , thanks.
Return: 0.38

Enquiry: Need self-cleavage of C3G C13U , thanks.
Return: 0.37

Enquiry: Need self-cleavage of C23A U34A , thanks.
Return: 0.24

Enquiry: Need self-cleavage of U9C A24U , thanks.
Return: 0.05

Enquiry: Need self-cleavage of C8A U43C , thanks.
Return: 0.17

Enquiry: Need self-cleavage of U28C G29A , thanks.
Return: 0.37

Enquiry: Need self-cleavage of A4C G17A , thanks.
Return: 0.08

Enquiry: Need self-cleavage of G1A C42U , thanks.
Return: 0.16

Enquiry: Need self-cleavage of G44C C45A , thanks.
Return: 0.05

Enquiry: Need self-cleavage of C31U A41C , thanks.
Return: 0.06

Enquiry: Need self-cleavage of G29A G33A , thanks.
Return: 0.12

Enquiry: Need self-cleavage of G40C C45G , thanks.
Return: 0.05

Enquiry: Need self-cleavage of C15U C31U , thanks.
Return: 0.09

Enquiry: Need self-cleavage of G30C G35C , thanks.
Return: 0.09

Enquiry: Need self-cleavage of G19C G35U , thanks.
Return: 0.07

Enquiry: Need self-cleavage of G33C C42U , thanks.
Return: 0.06

Enquiry: Need self-cleavage of A4G A14U , thanks.
Return: 0.24

Enquiry: Need self-cleavage of C15G G22A , thanks.
Return: 0.15

Enquiry: Need self-cleavage of C8G C46A , thanks.
Return: 0.05

Enquiry: Need self-cleavage of A11C U32G , thanks.
Return: 0.03

Enquiry: Need self-cleavage of U9A C18U , thanks.
Return: 0.11

Enquiry: Need self-cleavage of G17U C45A , thanks.
Return: 0.05

Enquiry: Need self-cleavage of G2U U32G , thanks.
Return: 0.03

Enquiry: Need self-cleavage of G17U C45U , thanks.
Return: 0.18

Enquiry: Need self-cleavage of G29A U32C , thanks.
Return: 0.18

Enquiry: Need self-cleavage of C18G C23G , thanks.
Return: 0.66

Enquiry: Need self-cleavage of C3A C46A , thanks.
Return: 0.4

Enquiry: Need self-cleavage of G17C G27C , thanks.
Return: 0.29

Enquiry: Need self-cleavage of C3G A25U , thanks.
Return: 0.47

Enquiry: Need self-cleavage of C15U C45G , thanks.
Return: 0.2
